Listed next: entries and their corresponding IC50.
Target: DDR2 (Homo sapiens (Human), UniProt Q16832)
Sequence (Q16832 22-855): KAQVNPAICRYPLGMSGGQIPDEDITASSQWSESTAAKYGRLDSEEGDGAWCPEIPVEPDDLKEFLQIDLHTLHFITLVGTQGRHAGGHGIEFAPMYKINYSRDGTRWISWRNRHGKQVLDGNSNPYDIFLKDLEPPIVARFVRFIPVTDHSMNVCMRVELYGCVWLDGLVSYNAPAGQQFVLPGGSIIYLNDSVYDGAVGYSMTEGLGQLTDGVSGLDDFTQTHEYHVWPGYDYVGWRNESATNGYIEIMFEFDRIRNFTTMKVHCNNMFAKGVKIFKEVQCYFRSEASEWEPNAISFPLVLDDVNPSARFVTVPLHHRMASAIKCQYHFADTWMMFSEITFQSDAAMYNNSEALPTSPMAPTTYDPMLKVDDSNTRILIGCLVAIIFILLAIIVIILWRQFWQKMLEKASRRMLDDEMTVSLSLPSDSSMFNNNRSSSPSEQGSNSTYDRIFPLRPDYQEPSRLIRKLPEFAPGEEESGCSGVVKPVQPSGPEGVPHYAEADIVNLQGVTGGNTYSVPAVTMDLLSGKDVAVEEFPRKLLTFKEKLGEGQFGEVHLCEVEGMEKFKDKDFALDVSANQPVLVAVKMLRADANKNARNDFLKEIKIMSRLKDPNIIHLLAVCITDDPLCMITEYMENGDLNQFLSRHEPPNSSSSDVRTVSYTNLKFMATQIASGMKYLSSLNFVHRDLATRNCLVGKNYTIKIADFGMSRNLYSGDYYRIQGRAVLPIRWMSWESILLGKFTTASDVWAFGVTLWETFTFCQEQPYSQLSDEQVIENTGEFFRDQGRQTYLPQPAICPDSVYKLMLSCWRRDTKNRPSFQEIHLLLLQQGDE
Experiment: LanthaScreen Eu kinase activity assay, DDR2
Assay type: biochemical
Conditions: 100 nM ATP; cells printed in μM
Response body: numeric value in µM, unit text excluded.

- CC1CN(c2cncnc2)Cc2cc(C(=O)Nc3cc(CN4CCOCC4)cc(C(F)(F)F)c3)ccc21 (stereo not shown) [Example 18]: 4.5

Recorded IC50 for CC1CN(c2cncnc2)Cc2cc(C(=O)Nc3cc(CN(C)C)cc(C(F)(F)F)c3)ccc21 (stereo not shown) [Example 21] , please?
6.7

Recorded IC50 for CC1Cc2ccc(C(=O)Nc3cc(CN4CCN(C)CC4)cc(C(F)(F)F)c3)cc2CN1c1cncnc1 (stereo not shown) [Example 30] , please?
7.6

Recorded IC50 for CN1CCN(Cc2cc(NC(=O)c3ccc4c(c3)CN(c3cncnc3)CC4)cc(C(F)(F)F)c2)CC1 [Example 3] , please?
8

----------
Listed next: entries and their corresponding IC50.
Biological target: DDR2 (Homo sapiens (Human))
Experiment: LanthaScreen Eu kinase activity assay, DDR2
Type: biochemical
Details: 100 nM ATP; cells without unit
Response body: numeric value in nM, unit text excluded.

• CC1CN(c2cncnc2)Cc2cc(C(=O)Nc3cc(CN4CCCN(C)CC4)cc(C(F)(F)F)c3)ccc21 (stereo not drawn) = 604
• CC(C)c1cc(CN2CCN(C)CC2)cc(NC(=O)c2ccc3c(c2)CN(c2cncnc2)CC3C)c1 (stereo not drawn) = 647

// switching to the query compound
Recorded IC50 for CC1CN(c2cncnc2)Cc2cc(C(=O)Nc3cc(CN4CC[C@@H](N(C)C)C4)cc(C(F)(F)F)c3)ccc21 (stereo partly drawn) , please?
672
